The listing below reports pKi for compounds tested on TGF-beta receptor type-1 (Homo sapiens).
// field semantics: pKi = negative decimal log of concentration (mol/L)

Use these answered entries as a reference point.
CC(=O)Nc1nc(-c2cccc(C)n2)c(-c2ccc3ncnn3c2)[nH]1 = 8.53
Cc1nc(-c2nc(N3CCOCC3)[nH]c2-c2ccc3ncnn3c2)ccc1F = 7.82

Ask | Find the measured pKi of Cc1nc(-c2nc(N3CCN(S(C)(=O)=O)CC3)[nH]c2-c2ccc3ncnn3c2)ccc1F with TGF-beta receptor type-1 (Homo sapiens) as test system.
Reply | 8.52

Ask | Report value only: pKi, TGF-beta receptor type-1 (Homo sapiens), Cc1nc(-c2nc(N3CCCCC3)[nH]c2-c2ccc3ncnn3c2)ccc1F
Reply | 7.27

Ask | Recall the reported pKi of Cc1nc(-c2nc(N)[nH]c2-c2ccc3nccnc3c2)ccc1F when tested on TGF-beta receptor type-1 (Homo sapiens).
Reply | 9.15

Ask | // fetch pKi; item: CC(=O)Nc1nc(-c2ccc(F)c(C)n2)c(-c2ccc3ncnn3c2)[nH]1 ; system: TGF-beta receptor type-1 (Homo sapiens)
Reply | 8.68

Ask | Enter recorded pKi with TGF-beta receptor type-1 (Homo sapiens) for CC(=O)N1CCN(c2nc(-c3ccc(F)c(C)n3)c(-c3ccc4ncnn4c3)[nH]2)CC1 here.
Reply | 7.82

Ask | Consider the compound Cc1cccc(-c2nc(N)sc2-c2ccc3nccnc3c2)n1 tested on TGF-beta receptor type-1 (Homo sapiens); state its pKi.
Reply | 9.48

---

Experiment: Half life in iv dosed Sprague-Dawley rat
Type: ADME, organism-based
Conditions: in vivo
Give true (1) when the value for half-life is at least 7 h. Give false (0) when it is less.

Answered cases to consult:
Cc1nc(-c2nc(N3CCOCC3)[nH]c2-c2ccc3ncnn3c2)ccc1F = false (0)
CC(=O)Nc1nc(-c2ccc(F)c(C)n2)c(-c2ccc3nccnc3c2)[nH]1 = true (1)
Cc1nc(-c2nc(N)[nH]c2-c2ccc3nccnc3c2)ccc1F = false (0)
COCCC(=O)Nc1nc(-c2ccc(F)c(C)n2)c(-c2ccc3nccnc3c2)[nH]1 = true (1)

Shifting focus to the molecule that follows.
Ask | Identify whether the reported half-life of the following molecule is 7 h or greater: Cc1cccc(-c2nc(N)sc2-c2ccc3nccnc3c2)n1
Reply | true (1)

---

Listed next: entries and their corresponding pEC50.
Biological target: UniProtKB P36897
Sequence (P36897 whole entry): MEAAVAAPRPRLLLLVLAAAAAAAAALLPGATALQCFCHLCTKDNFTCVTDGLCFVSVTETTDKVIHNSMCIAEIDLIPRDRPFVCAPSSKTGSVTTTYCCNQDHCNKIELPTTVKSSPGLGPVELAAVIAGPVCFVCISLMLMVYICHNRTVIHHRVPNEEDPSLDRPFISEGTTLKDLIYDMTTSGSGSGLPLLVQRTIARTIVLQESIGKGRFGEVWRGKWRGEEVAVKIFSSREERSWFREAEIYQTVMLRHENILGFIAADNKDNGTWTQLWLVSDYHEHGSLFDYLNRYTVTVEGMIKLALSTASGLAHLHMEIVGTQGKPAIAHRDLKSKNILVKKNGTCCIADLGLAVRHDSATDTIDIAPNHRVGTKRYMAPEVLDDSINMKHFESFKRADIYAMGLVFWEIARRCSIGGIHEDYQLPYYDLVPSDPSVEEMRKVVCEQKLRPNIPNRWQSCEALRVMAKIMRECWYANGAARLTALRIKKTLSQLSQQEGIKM
Assay: Inhibition of TGFBR1 transfected in human HepG2 cells after 24 hrs by plasminogen activator inhibitor-luciferase reporter gene assay
Scale: negative log10 of molar concentration, which is what pEC50 denotes.

Example entries begin here.
CCC(=O)Nc1nc(-c2ccc(F)c(C)n2)c(-c2ccc3nccnc3c2)[nH]1 = 6.81
COCCC(=O)Nc1nc(-c2ccc(F)c(C)n2)c(-c2ccc3nccnc3c2)[nH]1 = 6.83

Ask | Using known records, supply pEC50 for Cc1nc(-c2nc(N3CCN(C)CC3)[nH]c2-c2ccc3ncnn3c2)ccc1F
Reply | 6.46

Ask | Read off the recorded pEC50 for CC(=O)N1CCN(c2nc(-c3ccc(F)c(C)n3)c(-c3ccc4ncnn4c3)[nH]2)CC1
Reply | 5.91

Ask | Identify measured pEC50 corresponding to CC(=O)Nc1nc(-c2ccc(F)c(C)n2)c(-c2ccc3ncnn3c2)[nH]1
Reply | 6.95

Ask | Note pEC50 for the molecule shown: Cc1nc(-c2nc(N3CCN(S(C)(=O)=O)CC3)[nH]c2-c2ccc3ncnn3c2)ccc1F
Reply | 6.38

---

The entries below are paired with their reported bioavailability.
Assay: Bioavailability in iv and po dosed Sprague-Dawley rat
Type: ADME, organism-based
Conditions: in vivo
Response body: numeric value in %, unit text excluded.

Ask | Name the recorded bioavailability of the item Cc1nc(-c2nc(N)[nH]c2-c2ccc3nccnc3c2)ccc1F in your answer.
Reply | 28

Ask | Read off the recorded bioavailability for Cc1nc(-c2nc(N3CCOCC3)[nH]c2-c2ccc3ncnn3c2)ccc1F
Reply | 25

Ask | State, in one line, measured bioavailability of Cc1cccc(-c2nc(N)sc2-c2ccc3nccnc3c2)n1
Reply | 87

Ask | Please give measured bioavailability of the following entry: CC(=O)Nc1nc(-c2cccc(C)n2)c(-c2ccc3ncnn3c2)[nH]1
Reply | 100

Ask | Please list bioavailability recorded for the compound CC(=O)Nc1nc(-c2ccc(F)c(C)n2)c(-c2ccc3nccnc3c2)[nH]1
Reply | 66

Ask | Return value of bioavailability for input COCCC(=O)Nc1nc(-c2ccc(F)c(C)n2)c(-c2ccc3nccnc3c2)[nH]1 , no commentary.
Reply | 41

---

Biological target: TGF-beta receptor type-1 (Homo sapiens)
Sequence (P36897 whole entry): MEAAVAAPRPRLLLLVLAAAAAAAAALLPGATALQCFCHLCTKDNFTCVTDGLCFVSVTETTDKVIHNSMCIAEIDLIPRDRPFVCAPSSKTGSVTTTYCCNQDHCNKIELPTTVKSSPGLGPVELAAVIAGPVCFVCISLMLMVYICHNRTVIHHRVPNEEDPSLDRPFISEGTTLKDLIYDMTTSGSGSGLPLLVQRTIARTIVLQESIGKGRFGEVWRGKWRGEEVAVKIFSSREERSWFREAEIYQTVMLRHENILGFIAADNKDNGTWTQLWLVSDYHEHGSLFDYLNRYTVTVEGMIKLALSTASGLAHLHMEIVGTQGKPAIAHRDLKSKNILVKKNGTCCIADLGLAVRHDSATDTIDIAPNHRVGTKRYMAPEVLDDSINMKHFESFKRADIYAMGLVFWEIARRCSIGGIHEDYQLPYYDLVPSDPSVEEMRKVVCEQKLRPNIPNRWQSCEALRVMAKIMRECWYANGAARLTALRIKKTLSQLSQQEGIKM
Experiment: Inhibition of TGFBR1 transfected in human HepG2 cells after 24 hrs by plasminogen activator inhibitor-luciferase reporter gene assay
Recorded Endpoint: IC50 (nM)
Express the result in nM but write the number alone.

Ask | Report IC50 for Cc1nc(-c2nc(N)[nH]c2-c2ccc3nccnc3c2)ccc1F
Reply | 33.5

---

Molecular target: Mitogen-activated protein kinase 14 (Homo sapiens)
Sequence (Q16539 whole entry): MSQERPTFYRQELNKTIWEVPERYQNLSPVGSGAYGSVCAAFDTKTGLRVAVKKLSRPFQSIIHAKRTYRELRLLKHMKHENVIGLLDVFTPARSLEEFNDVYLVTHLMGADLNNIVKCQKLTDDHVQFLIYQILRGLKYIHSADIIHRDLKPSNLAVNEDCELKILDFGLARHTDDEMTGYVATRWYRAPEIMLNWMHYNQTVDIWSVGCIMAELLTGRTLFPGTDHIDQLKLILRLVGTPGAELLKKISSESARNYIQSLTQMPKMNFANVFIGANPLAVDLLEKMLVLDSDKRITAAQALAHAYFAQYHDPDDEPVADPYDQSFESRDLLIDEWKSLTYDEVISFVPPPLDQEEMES
Assay: Inhibition of p38alpha
Recorded Endpoint: pIC50
The read-out pIC50 is expressed as -log10 of concentration in moles per litre.

Ask | Please supply the value of reported pIC50 for the item Cc1nc(-c2nc(N)[nH]c2-c2ccc3nccnc3c2)ccc1F
Reply | 4.90

---

Target: Mitogen-activated protein kinase 14 (Homo sapiens)
Experiment: Inhibition of p38alpha
Recorded Endpoint: pEC50
Reminder that pEC50 is minus the log10 of a molar concentration.

The cases that follow already have their pEC50 on record.
CCC(=O)Nc1nc(-c2ccc(F)c(C)n2)c(-c2ccc3nccnc3c2)[nH]1 = 4.87
Cc1nc(-c2nc(N3CCN(S(C)(=O)=O)CC3)[nH]c2-c2ccc3ncnn3c2)ccc1F = 4.39
CC(=O)Nc1nc(-c2cccc(C)n2)c(-c2ccc3ncnn3c2)[nH]1 = 4.24

Ask | Look up and state reported pEC50 for Cc1nc(-c2nc(N3CCN(C)CC3)[nH]c2-c2ccc3ncnn3c2)ccc1F
Reply | 4.96

Ask | Report pEC50 for Cc1nc(-c2nc(N3CCOCC3)[nH]c2-c2ccc3ncnn3c2)ccc1F
Reply | 4.33

Ask | Give recorded pEC50. COCCC(=O)Nc1nc(-c2ccc(F)c(C)n2)c(-c2ccc3nccnc3c2)[nH]1
Reply | 4.83

Ask | Report pEC50, nothing else, for this molecule: CC(=O)Nc1nc(-c2ccc(F)c(C)n2)c(-c2ccc3nccnc3c2)[nH]1
Reply | 4.83

---

Catalogue of compounds with associated EC50
Target: TGF-beta receptor type-1 (Homo sapiens)
Experiment: Inhibition of TGFBR1 transfected in human HepG2 cells after 24 hrs by plasminogen activator inhibitor-luciferase reporter gene assay
Assay type: cell-based
Value expressed in nM; do not type the unit.

Guide cases for EC50, answers given:
COCC(=O)Nc1nc(-c2ccc(F)c(C)n2)c(-c2ccc3nccnc3c2)[nH]1 = 61
Cc1cccc(-c2nc(N)sc2-c2ccc3nccnc3c2)n1 = 80
Cc1nc(-c2nc(N3CCOCC3)[nH]c2-c2ccc3ncnn3c2)ccc1F = 513

Ask | Specify EC50 for CC(=O)Nc1nc(-c2cccc(C)n2)c(-c2ccc3ncnn3c2)[nH]1 and stop.
Reply | 165

Ask | Please report the measured EC50 for CC(=O)Nc1nc(-c2ccc(F)c(C)n2)c(-c2ccc3nccnc3c2)[nH]1
Reply | 180
